- SYSTEM TESTED: Human CB2R (Cannabanoid receptor 2) (Homo sapiens (Human), UniProt P34972)
- Sequence (P34972 whole entry): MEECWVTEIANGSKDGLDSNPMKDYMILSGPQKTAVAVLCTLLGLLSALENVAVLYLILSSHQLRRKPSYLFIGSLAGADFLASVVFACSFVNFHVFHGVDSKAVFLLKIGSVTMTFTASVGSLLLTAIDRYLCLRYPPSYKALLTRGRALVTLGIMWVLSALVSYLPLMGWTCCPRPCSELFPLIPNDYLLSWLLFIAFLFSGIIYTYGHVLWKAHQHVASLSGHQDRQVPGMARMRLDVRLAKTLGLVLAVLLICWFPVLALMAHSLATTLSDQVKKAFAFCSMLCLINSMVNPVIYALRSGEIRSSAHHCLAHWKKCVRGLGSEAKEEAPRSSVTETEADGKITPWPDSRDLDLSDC
- METHOD NOTES: CB-2 in vitro cAMP (HTRF) assay in HEK-293 cells
- TEST CONTEXT: HEK-293 cells stably transfected with human CB2R, 250 nM Forskolin, mean where tested more than once, read-out: CB-2 (HEK_cAMP) EC50
pEC50: −log10 of the molar value.
Readings of pEC50 for the listed compounds

Known results for compounds:
COMPOUND	TEST READOUT	RESULT
COC(=O)c1cccc(CN2CCC(c3n[nH]c4ccc(C(c5ccc(Cl)cc5)c5ccc(Cl)cc5)cc34)CC2)c1 [Compound 259]	pEC50	< 4.38
O=C(O)c1ccc(S(=O)(=O)N2CCC(c3c4cc(C(c5ccc(Cl)cc5)c5ccc(Cl)cc5)ccc4nn3C3CC3)CC2)cc1F [Compound 200]	pEC50	< 5.00
O=C(O)Cc1ccc(N2CCC(c3c4cc(C(c5ccc(Cl)cc5)c5ccc(Cl)cc5)ccc4nn3C3CC3)CC2)cc1 [Compound 203]	pEC50	< 5.00

Please turn your attention to the following entry.
Value lookup for pEC50; key = O=C(O)c1ccc(CN2CCC(c3nn(C4CC4)c4ccc(C(c5ccc(Cl)cc5)c5ccc(Cl)cc5)cc34)CC2)cc1 [Compound 209]
< 5.00

All values here come from patent US9682940B2.
